Readings of IC50 for the listed molecules
molecular target: sodium channel (site 2); experiment: Sodium channel receptor binding (site 2); settings: sodium channel site 2 binding; read-out: Na (site 2) (IC50)

>>> assay_value("CN(C)CCN(Cc1ccccc1)C(=O)[C@@H](NC(=O)Nc1ccc(OC(F)(F)F)cc1)C(C)(C)C")
"< 100 nM"

In: # IC50 lookup, item `CC(C)(C)[C@H](NC(=O)Nc1cccc(C(F)(F)F)c1)C(=O)N[C@H]1CCN(Cc2ccccc2)C1`
Out: < 100 nM

In: # IC50 lookup, item `CN(C)CCN(Cc1ccccc1)C(=O)[C@@H]1Cc2ccccc2CN1C(=O)Nc1ccc(OC(F)(F)F)cc1`
Out: < 100 nM

Just for reference, patent US7115664B2 is where these values come from.
